Taken from patent US9988373B2.

target: human P2X7 receptor (Homo sapiens, UniProt Q99572, R270H); construct: expressed in transfected cells; experiment: Evaluation of a human P2X7 receptor inhibitory activity (Yo-Pro uptake, BzATP stimulation, FLIPR TETRA); assay type: cell-based; conditions: antagonistic activity for the human P2X7 receptor, 1321N1 cell transfected with the human P2X7 receptor gene, Yo-Pro fluorescence, class symbols
Sequence (Q99572 whole entry R270H): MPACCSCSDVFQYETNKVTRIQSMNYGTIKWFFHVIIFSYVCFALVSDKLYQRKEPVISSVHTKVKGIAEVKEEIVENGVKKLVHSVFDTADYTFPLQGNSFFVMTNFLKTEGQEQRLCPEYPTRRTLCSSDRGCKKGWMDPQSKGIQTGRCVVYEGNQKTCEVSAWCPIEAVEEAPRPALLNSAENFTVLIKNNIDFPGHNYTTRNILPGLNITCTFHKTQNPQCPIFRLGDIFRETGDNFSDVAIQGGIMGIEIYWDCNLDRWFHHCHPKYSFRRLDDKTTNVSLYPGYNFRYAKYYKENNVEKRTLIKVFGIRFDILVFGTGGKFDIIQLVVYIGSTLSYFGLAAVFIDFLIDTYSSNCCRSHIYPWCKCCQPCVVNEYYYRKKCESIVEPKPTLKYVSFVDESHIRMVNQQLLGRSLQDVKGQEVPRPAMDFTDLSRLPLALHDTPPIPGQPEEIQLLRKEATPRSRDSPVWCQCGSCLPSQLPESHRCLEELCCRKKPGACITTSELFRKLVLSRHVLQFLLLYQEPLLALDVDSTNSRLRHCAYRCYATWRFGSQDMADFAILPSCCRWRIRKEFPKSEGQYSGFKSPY
// reported IC50 for each item listed

Answered cases to consult:
>>> measurement("CCOc1cn(Cc2ccccc2)c(-c2cccc(C(F)(F)F)c2Cl)cc1=O [Compound I-072]")
"< 50 nM"
>>> measurement("COc1cn(Cc2ccccc2)c(C2=CCSCC2)nc1=O [II-072]")
"1000 to 10000 nM"

Let us move to another entry and its IC50.
q: Lab note: record IC50 of COc1cn(Cc2ccccc2C)c(-c2cccc(C(F)(F)F)c2)nc1=O [II-065] tested on human P2X7 receptor (Homo sapiens, UniProt Q99572, R270H).
a: 100 to 500 nM
